Hey, just so you know, these numbers are from paper PMC10745768.

Documented IC50 across a set of compounds
Test system: MCF-7 cells
ASSAY_PROTOCOL: MTT antiproliferative assay, MCF-7
Type: cell-based
EXPERIMENTAL_CONTEXT: Homo sapiens, MCF7; MCF-7, 72 h; read-out: calculated IC50
Experimental: The in vitro anticancer effects of the presented compounds were assessed using the standard MTT [3-(4,5-dimethylthiazol2-yl)-2,5-diphenyltetrazolium bromide] assay on the following human cancer cell lines: cervical (HeLa and SiHa), breast (MCF-7 and MDA-MB-231) and ovarian cancer (A2780). The selectivity of the tested compounds was determined on murine embryonal fibroblast cells (NIH/3T3). […] The IC50 values were calculated using sigmoid curve fitting. […]
Please answer using a numeric value trailed by its unit.

Worked examples, 3 compounds total:
{"SMILES_STR": "COC(=O)[C@]1(C)CCC[C@@]2(C)[C@@H]3CC[C@@]4(CNCc5ccc(OC)cc5)C[C@]3(CC[C@@H]21)C[C@H]4O", "SYSTEM_UNDER_TEST": "MCF-7 cells", "RESULT": "1040 nM"}
{"SMILES_STR": "COC(=O)[C@]1(C)CCC[C@@]2(C)[C@@H]3CC[C@@]4(CO)C[C@]3(CC[C@@H]21)C[C@H]4N[C@H](C)c1ccc2ccccc2c1", "SYSTEM_UNDER_TEST": "MCF-7 cells", "RESULT": "2470 nM"}
{"SMILES_STR": "COC(=O)[C@]1(C)CCC[C@@]2(C)[C@@H]3CC[C@@]4(CO)C[C@]3(CC[C@@H]21)C[C@H]4N[C@@H](C)c1ccc2ccccc2c1", "SYSTEM_UNDER_TEST": "MCF-7 cells", "RESULT": "3880 nM"}

State, in one line, measured IC50 of COC(=O)[C@]1(C)CCC[C@@]2(C)[C@@H]3CC[C@@]4(CNCc5ccc(F)cc5)C[C@]3(CC[C@@H]21)C[C@H]4O 1590 nM

----------
Documented melting point across a set of compounds

State, in one line, measured melting point of COC(=O)[C@]1(C)CCC[C@@]2(C)[C@@H]3CC[C@@]4(CO)C[C@]3(CC[C@@H]21)C[C@H]4N[C@H](C)c1cccc2ccccc12 180 to 185 °C

State, in one line, measured melting point of COC(=O)[C@]1(C)CCC[C@@]2(C)[C@@H]3CC[C@@]4(Cn5cc(Cc6ccccc6)nn5)C[C@]3(CC[C@@H]21)CC4=O 172 to 176 °C

State, in one line, measured melting point of COC(=O)[C@]1(C)CCC[C@@]2(C)[C@@H]3CC[C@@]4(CN=[N+]=[N-])C[C@]3(CC[C@@H]21)CC4=O 97 to 99 °C

----------
Documented inhibition at 30 µM across a set of compounds
Test system: NIH/3T3 fibroblast cells
ASSAY_PROTOCOL: MTT assay on non-malignant fibroblasts (selectivity)
Type: cell-based, murine
EXPERIMENTAL_CONTEXT: Mus musculus, NIH3T3; NIH/3T3, 30 μM, 72 h; read-out: Growth inhibition (%) ± SEM
Experimental: The in vitro anticancer effects of the presented compounds were assessed using the standard MTT [3-(4,5-dimethylthiazol2-yl)-2,5-diphenyltetrazolium bromide] assay on the following human cancer cell lines: cervical (HeLa and SiHa), breast (MCF-7 and MDA-MB-231) and ovarian cancer (A2780). The selectivity of the tested compounds was determined on murine embryonal fibroblast cells (NIH/3T3). […] The IC50 values were calculated using sigmoid curve fitting. […]
Your answer should be a plain number; it is taken to be in %.

{"COMPOUND": "COC(=O)[C@]1(C)CCC[C@@]2(C)[C@@H]3CC[C@@]4(CO)C[C@]3(CC[C@@H]21)C[C@H]4NCc1ccc(F)cc1 [Compound 9]", "READOUT_UNIT": "%", "inhibition at 30 µM": 93.9}
{"COMPOUND": "COC(=O)[C@]1(C)CCC[C@@]2(C)[C@@H]3CC[C@@]4(CO)C[C@]3(CC[C@@H]21)C[C@@H]4N [Compound 7]", "READOUT_UNIT": "%", "inhibition at 30 µM": 97.8}
{"COMPOUND": "COC(=O)[C@]1(C)CCC[C@@]2(C)[C@@H]3CC[C@@]4(CN[C@H](C)c5cccc6ccccc56)C[C@]3(CC[C@@H]21)C[C@H]4O [Compound 28]", "READOUT_UNIT": "%", "inhibition at 30 µM": 94}

State, in one line, measured inhibition at 30 µM of CC[C@@H](N[C@@H]1C[C@]23CC[C@H]4[C@@](C)(CCC[C@@]4(C)C(=O)OC)[C@@H]2CC[C@@]1(CO)C3)c1ccccc1 [Compound 12] 95.5

State, in one line, measured inhibition at 30 µM of CC[C@H](N[C@@H]1C[C@]23CC[C@H]4[C@@](C)(CCC[C@@]4(C)C(=O)OC)[C@@H]2CC[C@@]1(CO)C3)c1ccccc1 [Compound 11] 93.6

State, in one line, measured inhibition at 30 µM of COC(=O)[C@]1(C)CCC[C@@]2(C)[C@@H]3CC[C@@]4(CNCc5ccccc5)C[C@]3(CC[C@@H]21)C[C@H]4O [Compound 22] 94.2

State, in one line, measured inhibition at 30 µM of COC(=O)C1(C)CCCC2(C)C3CCC4(CN)CC3(CCC12)CC4O (centres unmarked) [Compound 31] 97.6
